Provenance of the data: patent US9796733B2

# target_under_test: sGC α1/β1 heterodimer (Homo sapiens, UniProt Q02108+Q02153)
# Construct: expressed in transfected cells; host or cells: CHO-K1 (clone #7, CHO-K1/sGC)
# Sequence (Q02108 1-690): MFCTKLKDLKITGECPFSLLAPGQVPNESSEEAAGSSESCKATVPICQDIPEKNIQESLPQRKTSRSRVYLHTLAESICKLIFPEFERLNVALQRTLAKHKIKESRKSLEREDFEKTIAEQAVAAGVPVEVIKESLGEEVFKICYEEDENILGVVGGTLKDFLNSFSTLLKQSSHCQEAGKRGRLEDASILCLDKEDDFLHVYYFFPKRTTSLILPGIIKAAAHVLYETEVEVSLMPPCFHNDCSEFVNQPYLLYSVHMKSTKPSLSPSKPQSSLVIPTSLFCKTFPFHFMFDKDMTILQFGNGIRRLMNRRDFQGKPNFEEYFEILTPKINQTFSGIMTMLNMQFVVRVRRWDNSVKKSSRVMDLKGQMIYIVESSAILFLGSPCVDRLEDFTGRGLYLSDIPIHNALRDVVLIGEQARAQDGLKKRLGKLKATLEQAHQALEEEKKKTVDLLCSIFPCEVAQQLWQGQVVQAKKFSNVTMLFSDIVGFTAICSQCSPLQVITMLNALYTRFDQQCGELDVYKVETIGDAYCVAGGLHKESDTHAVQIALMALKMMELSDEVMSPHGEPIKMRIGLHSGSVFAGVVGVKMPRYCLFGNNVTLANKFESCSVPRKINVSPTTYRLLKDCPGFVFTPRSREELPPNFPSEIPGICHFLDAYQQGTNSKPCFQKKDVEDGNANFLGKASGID
# Sequence (Q02153 1-619): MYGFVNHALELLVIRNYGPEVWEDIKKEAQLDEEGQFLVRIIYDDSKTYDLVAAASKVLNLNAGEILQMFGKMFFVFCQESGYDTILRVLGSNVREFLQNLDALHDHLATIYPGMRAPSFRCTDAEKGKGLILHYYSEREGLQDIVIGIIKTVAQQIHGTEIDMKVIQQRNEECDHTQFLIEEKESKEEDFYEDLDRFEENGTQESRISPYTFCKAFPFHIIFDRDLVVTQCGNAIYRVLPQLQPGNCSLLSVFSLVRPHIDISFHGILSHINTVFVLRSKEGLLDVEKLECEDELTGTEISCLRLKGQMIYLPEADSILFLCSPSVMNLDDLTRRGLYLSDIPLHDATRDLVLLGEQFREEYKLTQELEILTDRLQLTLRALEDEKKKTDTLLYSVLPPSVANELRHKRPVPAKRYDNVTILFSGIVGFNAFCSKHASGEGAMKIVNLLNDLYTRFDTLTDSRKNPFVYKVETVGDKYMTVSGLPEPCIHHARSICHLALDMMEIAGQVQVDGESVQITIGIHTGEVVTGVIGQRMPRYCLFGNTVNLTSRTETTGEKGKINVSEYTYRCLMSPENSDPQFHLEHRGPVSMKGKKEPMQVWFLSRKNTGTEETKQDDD
# measurement_description: Cell-based sGC functional assay (CASA assay): cGMP generation in CHO-K1/sGC cells, HTRF detection
# details: CHO-K1, percent activation relative to standard Compound A in CHO-K1/sGC cells; read-out: % Act.
endpoint_label: Emax (%)

                                   molecule                         target_under_test  endpoint_label  unit_of_measurement  recorded_measurement
0  CC1(c2ccc(OC(F)(F)F)cc2)C(=O)Nc2nc(-c3cn4ccnc4c(CCCC(F)(F)F)n3)nc(N)c21 (stereo not shown) [Example 207B]  sGC α1/β1 heterodimer (Homo sapiens, UniProt Q02108+Q02153)            Emax                    %                   121
1  CC1(c2ncccn2)C(=O)Nc2nc(-c3cn4ccnc4c(CCC(F)(F)C(F)(F)F)n3)nc(N)c21 (stereo not shown) [Example 220B]  sGC α1/β1 heterodimer (Homo sapiens, UniProt Q02108+Q02153)            Emax                    %                   100
2  CC1(c2ccc(Cl)c(F)c2)C(=O)Nc2nc(-c3cn4ccnc4cn3)nc(N)c21 (stereo not shown) [Example 140B]  sGC α1/β1 heterodimer (Homo sapiens, UniProt Q02108+Q02153)            Emax                    %                   107
3  CC1(c2ccc(F)cc2)C(=O)Nc2nc(-c3cn4cc(C(F)(F)F)nc4c(Cc4cccc(F)c4F)n3)nc(N)c21 (stereo not shown) [Example 148A]  sGC α1/β1 heterodimer (Homo sapiens, UniProt Q02108+Q02153)            Emax                    %                   148
4  Nc1nc(-c2cn3ccnc3c(CCCC(F)(F)F)n2)nc2c1C(c1ccc(F)cn1)(C1CC1)C(=O)N2 (stereo not shown) [Example 217A]  sGC α1/β1 heterodimer (Homo sapiens, UniProt Q02108+Q02153)            Emax                    %                    82
5  CC1(c2ccc(F)cc2)C(=O)Nc2nc(-c3cn4ccnc4c(CCC4CCCCC4)n3)nc(N)c21 (stereo not shown) [Example 12A]  sGC α1/β1 heterodimer (Homo sapiens, UniProt Q02108+Q02153)            Emax                    %                   142
6  Cc1nc2c(CCC(F)(F)C(F)(F)F)nc(-c3nc(N)c4c(n3)NC(=O)C4(C)c3ccc(F)cc3)cn2c1C (stereo not shown) [Example 177A]  sGC α1/β1 heterodimer (Homo sapiens, UniProt Q02108+Q02153)            Emax                    %                   107
